study target: sSortilin, Q99523
Sequence (Q99523 78-755): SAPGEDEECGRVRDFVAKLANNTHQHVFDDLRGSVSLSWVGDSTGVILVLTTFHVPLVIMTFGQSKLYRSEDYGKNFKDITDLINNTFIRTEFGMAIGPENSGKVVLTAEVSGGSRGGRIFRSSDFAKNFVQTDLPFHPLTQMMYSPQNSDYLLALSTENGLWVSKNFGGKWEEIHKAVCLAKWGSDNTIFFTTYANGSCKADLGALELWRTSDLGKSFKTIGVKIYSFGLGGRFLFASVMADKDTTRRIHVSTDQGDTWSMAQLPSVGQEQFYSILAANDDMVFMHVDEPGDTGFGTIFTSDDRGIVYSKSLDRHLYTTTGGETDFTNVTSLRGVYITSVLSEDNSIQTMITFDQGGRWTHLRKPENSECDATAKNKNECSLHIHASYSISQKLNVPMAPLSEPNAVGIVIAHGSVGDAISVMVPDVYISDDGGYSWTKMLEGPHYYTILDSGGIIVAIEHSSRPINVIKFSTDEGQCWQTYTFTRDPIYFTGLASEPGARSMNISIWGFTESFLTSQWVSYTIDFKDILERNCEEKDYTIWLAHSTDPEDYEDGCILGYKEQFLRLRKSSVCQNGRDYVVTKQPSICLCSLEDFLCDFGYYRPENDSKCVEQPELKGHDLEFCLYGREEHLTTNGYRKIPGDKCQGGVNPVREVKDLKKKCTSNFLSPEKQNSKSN
assay text: SPR
assay conditions: modification not given
quantity measured: pEC50
Interpret pEC50 as the negative base-10 log of the concentration measured in mol/L.

Specify pEC50 for RRPYIL [NT8-13] and stop.
6.34
